Experiment: Rat in vivo pharmacokinetics study after oral administration of product A, B or C
Design: species or system Male Sprague-Dawley (SD) rats
Conditions: male, Sprague-Dawley, rat, plasma, po, 10 mL·kg^−1, rats, oral product C, 10 mL·kg^−1; read-out: T 1/2z
property_measured: half-life

[[record]]
compound = "O=c1cc(-c2ccc(O)c(O)c2)oc2cc(O[C@@H]3O[C@H](CO)[C@@H](O)[C@H](O)[C@H]3O)cc(O)c12 [Luteoloside]"
property_measured = "half-life"
data_value = "9.65 h"

[[record]]
compound = "O=c1c(O[C@@H]2O[C@H](CO)[C@@H](O)[C@H](O)[C@H]2O)c(-c2ccc(O)c(O)c2)oc2cc(O)cc(O)c12"
property_measured = "half-life"
data_value = "7.58 h"

[[record]]
compound = "O=C(O)/C=C/c1ccc(O)c(O)c1"
property_measured = "half-life"
data_value = "6.53 h"

[[record]]
compound = "C[C@@H]1O[C@@H](OC[C@H]2O[C@@H](Oc3c(-c4ccc(O)c(O)c4)oc4cc(O)cc(O)c4c3=O)[C@H](O)[C@@H](O)[C@@H]2O)[C@H](O)[C@H](O)[C@H]1O"
property_measured = "half-life"
data_value = "7.55 h"

[[record]]
compound = "O=C(/C=C/c1ccc(O)c(O)c1)O[C@H]1[C@H](O)C[C@](O)(C(=O)O)C[C@H]1O"
property_measured = "half-life"
data_value = "4.65 h"

[[record]]
compound = "C[C@@H]1O[C@@H](OC[C@H]2O[C@@H](OCCc3ccc(O)c(O)c3)[C@H](O)[C@@H](O)[C@@H]2OC(=O)/C=C/c2ccc(O)c(O)c2)[C@H](O)[C@H](O)[C@H]1O [Forsythoside A]"
property_measured = "half-life"
data_value = "5.98 h"

